target: ~100 representative kinases (Homo sapiens); construct: Recombinant protein kinase domains with a concentration of 2 μM; assay: DSF 100 kinase selectivity screen; format: binding; conditions: protein MST3; average of three replicates;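 note: compound tested at 20 µM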
Outcome measure: dTm (K)

O=C(Nc1cccc(-c2c[nH]c3ncnc(N4CCOCC4)c23)c1)c1cccn(-c2ccc(F)cc2)c1=O [Compound 4] : 3.28

[P] CCc1ccc(NC(=O)C2(C(=O)Nc3cccc(-c4c[nH]c5ncnc(N6CCOCC6)c45)c3)CC2)cc1 [Compound 15]
[Q] O=C(Nc1cccc(-c2c[nH]c3ncnc(N4CCOCC4)c23)c1)C1(C(=O)Nc2ccc(F)c(Br)c2F)CC1 [Compound 26]
# min-compare on dTm between P and Q Kindly give the label for the entry you pick.
P
(P: 2.23 K, Q: 3.50 K)

[P] CC(=O)N1CCN(c2nc(Cl)nc3[nH]cc(-c4cccc(NC(=O)Nc5cc(C(C)(C)C)nn5-c5ccc(C)cc5)c4)c23)CC1 [Compound 31]
[Q] O=C(Nc1cccc(-c2c[nH]c3ncnc(N4CCOCC4)c23)c1)C1(C(=O)Nc2ccc(F)cc2F)CC1 [Compound 23]
[R] Cc1cc(NC(=O)C2(C(=O)Nc3cccc(-c4c[nH]c5ncnc(N6CCOCC6)c45)c3)CC2)ccc1F [Compound 20]
Rank ascending by dTm. As an answer, provide the labels arranged in the order called for.
P, Q, R
(P: 3.03 K, Q: 5.25 K, R: 8.98 K)

---

Biological target: ~100 representative kinases (Homo sapiens, UniProt Q13188)
Construct: Recombinant protein kinase domains with a concentration of 2 μM
Sequence (Q13188 1-491): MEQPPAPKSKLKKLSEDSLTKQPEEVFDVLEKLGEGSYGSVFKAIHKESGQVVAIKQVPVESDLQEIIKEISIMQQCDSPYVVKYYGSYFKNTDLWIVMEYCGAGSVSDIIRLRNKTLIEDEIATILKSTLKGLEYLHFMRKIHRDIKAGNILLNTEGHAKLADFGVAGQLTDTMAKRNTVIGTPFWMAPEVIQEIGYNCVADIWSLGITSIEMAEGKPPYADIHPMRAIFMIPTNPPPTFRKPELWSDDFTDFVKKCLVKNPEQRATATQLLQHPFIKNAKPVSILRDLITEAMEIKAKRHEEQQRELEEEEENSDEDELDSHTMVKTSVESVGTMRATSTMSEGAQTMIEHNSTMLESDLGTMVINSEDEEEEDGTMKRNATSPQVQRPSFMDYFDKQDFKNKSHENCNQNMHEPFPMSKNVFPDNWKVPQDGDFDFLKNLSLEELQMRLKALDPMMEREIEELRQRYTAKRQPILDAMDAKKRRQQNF
Test: DSF 100 kinase selectivity screen;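 note: compound tested at 20 µM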
Type: binding
Details: Protein STK3; DSF; average of three replicates
Outcome measure: dTm (K)

Cc1ccc(NC(=O)C2(C(=O)Nc3cccc(-c4c[nH]c5ncnc(N6CCOCC6)c45)c3)CC2)cc1 [Compound 14] : 7.94

[P] O=C(Nc1ccccc1)C1(C(=O)Nc2cccc(-c3c[nH]c4ncnc(N5CCOCC5)c34)c2)CC1 [Compound 12]
[Q] O=C(Nc1ccc(Cl)cc1)C1(C(=O)Nc2cccc(-c3c[nH]c4ncnc(N5CCOCC5)c34)c2)CC1 [Compound 13]
Which gives the smaller dTm number: P or Q ? Reply with the label of the item you choose.
P
(P: 6.83 K, Q: 10.20 K)

---

molecular target: ~100 representative kinases (Homo sapiens, UniProt Q00536); construct: Recombinant protein kinase domains with a concentration of 2 μM; assay: DSF 100 kinase selectivity screen; type: binding; details: protein PCTK1; average of three replicates;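 note: compound tested at 20 µM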
Sequence (Q00536 whole entry, the tested form may be a part): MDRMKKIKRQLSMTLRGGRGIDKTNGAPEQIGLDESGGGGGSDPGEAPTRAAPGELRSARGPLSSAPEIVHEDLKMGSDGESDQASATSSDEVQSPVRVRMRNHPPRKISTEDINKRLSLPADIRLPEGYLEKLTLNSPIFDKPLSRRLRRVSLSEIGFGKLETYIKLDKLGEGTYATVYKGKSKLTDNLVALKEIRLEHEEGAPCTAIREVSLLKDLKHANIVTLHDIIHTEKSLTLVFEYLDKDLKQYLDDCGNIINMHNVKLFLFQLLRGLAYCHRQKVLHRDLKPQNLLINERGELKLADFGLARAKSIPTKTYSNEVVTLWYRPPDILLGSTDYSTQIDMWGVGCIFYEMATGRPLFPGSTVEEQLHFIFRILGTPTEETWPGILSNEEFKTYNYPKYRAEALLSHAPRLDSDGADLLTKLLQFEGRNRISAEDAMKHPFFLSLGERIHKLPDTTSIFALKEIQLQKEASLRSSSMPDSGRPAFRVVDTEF
Outcome measure: dTm (K)

Sample answers from the record:
Cc1ccc(C(=O)Nc2ccc(CN3CCN(C)CC3)c(C(F)(F)F)c2)cc1C#Cc1c[nH]c2ncnc(N3CCOCC3)c12 [Compound 1] : 1.60
O=C(Nc1cccc(-c2c[nH]c3ncnc(N4CCOCC4)c23)c1)C1(C(=O)Nc2ccc(F)c(Br)c2F)CC1 [Compound 26] : -1.22
O=C(Nc1cccc(-c2c[nH]c3ncnc(N4CCOCC4)c23)c1)C1(C(=O)Nc2cccc3c2CCC3)CC1 [Compound 11] : 3.50
COc1ccc(NC(=O)C2(C(=O)Nc3cccc(-c4c[nH]c5ncnc(N6CCOCC6)c45)c3)CC2)cc1 [Compound 16] : 5.58
Cc1ccc(C(=O)Nc2ccc(CN3CCN(C)CC3)c(C(F)(F)F)c2)cc1C#Cc1cnc2[nH]ncc2c1 [GZD-824, reference compound] : 3.06

[I] CC(C)(C)c1cccc(NC(=O)C2(C(=O)Nc3cccc(-c4c[nH]c5ncnc(N6CCOCC6)c45)c3)CC2)c1 [Compound 22]
[II] Cc1ccc(-n2nc(C(C)(C)C)cc2NC(=O)Nc2cccc(-c3c[nH]c4nc(Cl)nc(N5CCOCC5)c34)c2)cc1 [Compound 30]
For the two items I and II , which reports the higher dTm value? Could you answer with the label of the item you picked?
I
(I: 4.90 K, II: 3.37 K)

---

biological target: ~100 representative kinases (Homo sapiens, UniProt Q96NX5); construct: Recombinant protein kinase domains with a concentration of 2 μM; assay: DSF 100 kinase selectivity screen; format: binding; settings: Protein CAMK1G; average of three replicates;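 note: compound tested at 20 µM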
Sequence (Q96NX5 whole entry, the tested form may be a part): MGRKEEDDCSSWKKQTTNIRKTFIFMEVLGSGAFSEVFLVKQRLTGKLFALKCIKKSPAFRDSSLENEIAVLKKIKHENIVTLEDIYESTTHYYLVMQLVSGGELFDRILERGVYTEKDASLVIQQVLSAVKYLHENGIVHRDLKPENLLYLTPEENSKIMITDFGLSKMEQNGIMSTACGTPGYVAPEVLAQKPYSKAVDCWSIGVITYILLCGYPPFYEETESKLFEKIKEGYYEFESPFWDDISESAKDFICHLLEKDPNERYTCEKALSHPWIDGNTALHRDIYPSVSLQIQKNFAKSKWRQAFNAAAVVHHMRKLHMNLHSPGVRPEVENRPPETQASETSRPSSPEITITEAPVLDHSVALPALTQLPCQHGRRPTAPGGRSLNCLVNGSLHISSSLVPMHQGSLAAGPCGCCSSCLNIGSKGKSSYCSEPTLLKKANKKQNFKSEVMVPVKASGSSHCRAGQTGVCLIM
Outcome measure: dTm (K)

Solved entries:
Cc1ccc(NC(=O)C2(C(=O)Nc3cccc(-c4c[nH]c5ncnc(N6CCOCC6)c45)c3)CC2)cc1 : 1.22
Cc1ccc(C(=O)Nc2ccc(CN3CCN(C)CC3)c(C(F)(F)F)c2)cc1C#Cc1c[nH]c2ncnc(N3CCOCC3)c12 : 2.40
O=C(Nc1cccc(-c2c[nH]c3ncnc(N4CCOCC4)c23)c1)C1(C(=O)Nc2ccc(F)c(F)c2)CC1 : 2.10
COc1ccc(NC(=O)C2(C(=O)Nc3cccc(-c4c[nH]c5ncnc(N6CCOCC6)c45)c3)CC2)cc1 : -0.76
O=C(Nc1cccc(-c2c[nH]c3ncnc(N4CCOCC4)c23)c1)C1(C(=O)Nc2cccc3c2CCC3)CC1 : 2.69

[1] Cc1cc(NC(=O)C2(C(=O)Nc3ccc(F)cc3)CC2)cc(-c2c[nH]c3ncnc(N4CCOCC4)c23)c1
[2] Cc1ccc(-n2nc(C(C)(C)C)cc2NC(=O)Nc2cccc(-c3c[nH]c4nc(Cl)nc(N5CCOCC5)c34)c2)cc1
Could you check which of 1 and 2 has a smaller value for dTm? Record your answer as the label of the chosen record.
2

---

biological target: ~100 representative kinases (Homo sapiens, UniProt P11309); construct: Recombinant protein kinase domains with a concentration of 2 μM; test: DSF 100 kinase selectivity screen; assay type: binding; details: protein PIM1; average of three replicates;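 note: compound tested at 20 µM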
Sequence (P11309 whole entry, the tested form may be a part): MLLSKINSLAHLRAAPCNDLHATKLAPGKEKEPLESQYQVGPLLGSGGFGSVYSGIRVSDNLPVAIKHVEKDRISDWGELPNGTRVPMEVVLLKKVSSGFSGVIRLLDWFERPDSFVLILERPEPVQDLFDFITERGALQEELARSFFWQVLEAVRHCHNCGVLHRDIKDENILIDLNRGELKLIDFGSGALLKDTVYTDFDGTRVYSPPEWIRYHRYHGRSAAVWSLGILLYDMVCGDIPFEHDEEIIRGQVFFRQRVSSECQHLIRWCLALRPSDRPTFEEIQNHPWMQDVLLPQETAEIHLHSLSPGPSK
Outcome measure: dTm (K)

The following compounds have reported results that may help.
CC(C)(C)c1cccc(NC(=O)C2(C(=O)Nc3cccc(-c4c[nH]c5ncnc(N6CCOCC6)c45)c3)CC2)c1 [Compound 22] : 4.89
Cc1cc(NC(=O)C2(C(=O)Nc3cccc(-c4c[nH]c5ncnc(N6CCOCC6)c45)c3)CC2)ccc1F [Compound 20] : 5.73
O=C(Nc1cccc(-c2c[nH]c3ncnc(N4CCOCC4)c23)c1)C1(C(=O)Nc2ccc(F)c(Br)c2F)CC1 [Compound 26] : 1.29
C[C@@H]1CN(c2cc(-c3n[nH]c4ccc(OC5(C)CC5)cc34)ncn2)C[C@H](C)O1 [MLi2] : 0.81
Cc1ccc(-n2nc(C(C)(C)C)cc2NC(=O)Nc2cccc(-c3c[nH]c4nc(Cl)nc(N5CCOCC5)c34)c2)cc1 [Compound 30] : 1.31
O=C(Nc1cccc(-c2c[nH]c3ncnc(N4CCOCC4)c23)c1)C1(C(=O)Nc2ccc(F)c(F)c2)CC1 [Compound 17] : 3.60
O=C(Nc1ccc(Cl)cc1)C1(C(=O)Nc2cccc(-c3c[nH]c4ncnc(N5CCOCC5)c34)c2)CC1 [Compound 13] : 4.69
COc1cc(NC(=O)C2(C(=O)Nc3cccc(-c4c[nH]c5ncnc(N6CCOCC6)c45)c3)CC2)ccc1F [Compound 21] : 3.07
CCSc1nc(NC)c2c(-c3cccc(NC(=O)Nc4cc(C(C)(C)C)nn4-c4ccc(C)cc4)c3)c[nH]c2n1 [Compound 32] : 1.50
COc1cc(S(C)(=O)=O)ccc1Nc1nc(N(C)C)c2c(Cl)c[nH]c2n1 [Compound 37] : -0.49

[A] O=C(Nc1cccc(-c2c[nH]c3ncnc(N4CCOCC4)c23)c1)C1(C(=O)Nc2cc(Br)c(F)cc2F)CC1 [Compound 25]
[B] Cc1cc(NC(=O)C2(C(=O)Nc3ccc(F)cc3)CC2)cc(-c2c[nH]c3ncnc(N4CCOCC4)c23)c1 [Compound 6]
When A and B are compared, which has the higher number for dTm? Answer by quoting the chosen item's label.
A

---

Molecular target: ~100 representative kinases (Homo sapiens)
Construct: Recombinant protein kinase domains with a concentration of 2 μM
Sequence (P33981 1-857): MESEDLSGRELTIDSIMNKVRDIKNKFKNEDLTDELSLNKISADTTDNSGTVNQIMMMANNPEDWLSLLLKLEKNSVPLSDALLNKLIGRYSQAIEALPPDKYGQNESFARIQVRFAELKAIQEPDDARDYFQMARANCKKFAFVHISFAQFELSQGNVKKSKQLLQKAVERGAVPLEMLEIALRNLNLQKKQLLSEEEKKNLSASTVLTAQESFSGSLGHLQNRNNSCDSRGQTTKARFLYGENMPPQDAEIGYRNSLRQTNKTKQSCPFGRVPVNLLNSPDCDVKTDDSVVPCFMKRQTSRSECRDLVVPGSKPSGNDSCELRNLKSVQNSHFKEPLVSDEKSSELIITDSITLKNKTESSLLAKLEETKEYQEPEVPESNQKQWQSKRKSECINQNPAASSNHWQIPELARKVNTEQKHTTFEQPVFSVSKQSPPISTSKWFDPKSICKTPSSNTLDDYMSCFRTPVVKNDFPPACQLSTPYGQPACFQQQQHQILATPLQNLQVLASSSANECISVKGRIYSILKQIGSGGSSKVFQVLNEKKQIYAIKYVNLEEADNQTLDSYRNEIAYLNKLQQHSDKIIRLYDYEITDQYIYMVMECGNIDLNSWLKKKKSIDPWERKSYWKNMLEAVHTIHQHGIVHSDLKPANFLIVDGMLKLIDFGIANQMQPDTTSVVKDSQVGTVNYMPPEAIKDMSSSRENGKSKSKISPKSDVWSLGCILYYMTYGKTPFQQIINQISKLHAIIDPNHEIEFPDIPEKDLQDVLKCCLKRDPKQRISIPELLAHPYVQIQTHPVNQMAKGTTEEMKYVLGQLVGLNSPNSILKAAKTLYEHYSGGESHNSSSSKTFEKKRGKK
Assay: DSF 100 kinase selectivity screen;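 note: compound tested at 20 µM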
Type: binding
Conditions: Protein TTK; DSF; average of three replicates
Outcome measure: dTm (K)

O=C(Nc1cccc(-c2c[nH]c3ncnc(N4CCOCC4)c23)c1)C1(C(=O)Nc2ccc(F)cc2F)CC1 [Compound 23] : -5.86

[I] O=C(Nc1cccc(-c2c[nH]c3ncnc(N4CCOCC4)c23)c1)C1(C(=O)Nc2ccc(F)c(Br)c2F)CC1 [Compound 26]
[II] Cc1ccc(-n2nc(C(C)(C)C)cc2NC(=O)Nc2cccc(-c3c[nH]c4ncnc(N5CCOCC5)c34)c2)cc1 [Compound 29]
[III] Cc1ccc(-n2nc(C(C)(C)C)cc2NC(=O)Nc2cccc(-c3c[nH]c4nc(Cl)nc(N5CCOCC5)c34)c2)cc1 [Compound 30]
Order the 3 compounds from highest to lowest dTm. Answer format: the labels, ordered as requested.
I, II, III
(I: 6.98 K, II: 4.46 K, III: 2.15 K)

[a] CCc1ccc(NC(=O)C2(C(=O)Nc3cccc(-c4c[nH]c5ncnc(N6CCOCC6)c45)c3)CC2)cc1 [Compound 15]
[b] Cc1ccc(C(=O)Nc2ccc(CN3CCN(C)CC3)c(C(F)(F)F)c2)cc1C#Cc1c[nH]c2ncnc(N3CCOCC3)c12 [Compound 1]
Which numeric dTm is bigger, that of a or that of b ? Indicate your choice by writing its label.
a

[P] O=C(Nc1cccc(-c2c[nH]c3ncnc(N4CCOCC4)c23)c1)C1(C(=O)Nc2ccc(F)c(Cl)c2)CC1 [Compound 18]
[Q] O=C(Nc1cc(F)cc(Br)c1)C1(C(=O)Nc2cccc(-c3c[nH]c4ncnc(N5CCOCC5)c34)c2)CC1 [Compound 27]
[R] CC(=O)N1CCN(c2nc(Cl)nc3[nH]cc(-c4cccc(NC(=O)Nc5cc(C(C)(C)C)nn5-c5ccc(C)cc5)c4)c23)CC1 [Compound 31]
Endpoint returns the given compounds ordered by ascending dTm. Respond with an ordered listing of the labels, as requested.
R, Q, P
(R: 1.71 K, Q: 4.57 K, P: 8.02 K)

[P] O=C(Nc1cccc(-c2c[nH]c3ncnc(N4CCOCC4)c23)c1)C1(C(=O)Nc2cc(Br)c(F)cc2F)CC1 [Compound 25]
[Q] O=C(Nc1cccc(-c2c[nH]c3ncnc(N4CCOCC4)c23)c1)C1(C(=O)Nc2ccc(F)c(Br)c2)CC1 [Compound 19]
Parameter metric = dTm. Return the lower-valued option from P and Q . Kindly give the label for the entry you pick.
P

[a] CC(C)(C)c1cc(NC(=O)Nc2cccc(-c3c[nH]c4ncnc(N5CCOCC5)c34)c2)n(-c2ccc3ncccc3c2)n1 [Compound 28]
[b] COc1ccc(NC(=O)C2(C(=O)Nc3cccc(-c4c[nH]c5ncnc(N6CCOCC6)c45)c3)CC2)cc1 [Compound 16]
// compare: a vs b , metric dTm, want the smaller The response must carry the label of the picked entry.
b
(b: 3.48 K, a: 7.28 K)

Origin of values: paper PMC12136037
